- Tested on: MDA-MB-435 melanoma
- Method description: NCI-60 one-dose screen, 48 h (100 = growth as untreated, 0 = no growth, -100 = all killed)
- Stated conditions: 10 µM unless noted
- Description: Growth inhibition of the MDA-MB-435 human Melanoma tumor cell line is measured as a screen for anti-cancer activity. Cells are grown in 96 well plates and exposed to the test compound for 48 hours. Compounds are tested at a single concentration, which is 10^-5 M for most compounds. The reported endpoint is percent growth (GI% or GIPRCNT), where numbers from 0 - 100% represent growth inhibition, and numbers from -100% - 0 represent cell death. […]
The panel holds about 83,000 compounds, 20% with a hit somewhere; the sample as a whole holds those more often. Calls of active or inactive are those of the source. The calls were made as follows: active = growth percent below 10; inactive = the rest.
Property name: growth

Please review the entries below; each comes with its answer.
Structure smiles string	Result
CC[C@@H]1O[C@H](O[C@@H](c2cnc[nH]2)[C@H](NC(=O)c2nc([C@H](CC(N)=O)NC[C@@H](N)C(N)=O)nc(N)c2C)C(=O)N[C@H](C)[C@H](O)[C@H](C)C(=O)N[C@@H](C(=O)NCCc2nc(-c3nc(C(=O)NCCCCN=C(N)N)cs3)cs2)[C@@H](C)O)[C@H](O[C@@H]2O[C@H](CO)[C@H](O)[C@H](OC(N)=O)[C@@H]2O)[C@H](C)[C@@H]1C	81.9% (inactive)
COc1ccc(-c2nc3cc(C(=O)Nc4cc(OC)c(OC)c(OC)c4)ccc3n2C2CCCCC2)cc1	46% (inactive)
O=C1c2cccc3cccc(c23)C(=O)N1CCCCN1CCN(CCCCOc2ccc(-c3nc4ccc(N5CCOCC5)cc4[nH]3)cc2)CC1	88.3% (inactive)
O=C(Cn1cccc(Nc2ccccc2)c1=O)Nc1ccccc1	97.3% (inactive)

[ask] Write down the reported growth of C(=N/Nc1ncc(-c2cc3cc(-c4ccccc4)ccc3o2)s1)/c1cccs1 , test system: MDA-MB-435 melanoma.
[reply] 95.9% (inactive)
